Where do the numbers come from? From patent US20220090023A1.

Tested on: BJ-5Ta
Assay Summary: IC50 analyses of three inhibitors of cell growth, BJ-5Ta
Assay type: cell-based, human
Test Conditions: Homo sapiens, no serum
Experimental Readout: IC50 (nM)
# value in nM; strip the unit string

Ask: Look up IC50: `CCC(C)(C)C(=O)O[C@H]1C[C@@H](C)C=C2C=C[C@H](C)[C@H](CC[C@@H]3C[C@@H](O)CC(=O)O3)[C@H]21`
Result: 1960

* * *

Tested on: IMR-90
Assay Summary: IC50 analyses of three inhibitors of cell growth, IMR-90
Format: cell-based, human
Test Conditions: Homo sapiens, IMR-90, IMR-90, no serum
Text: To check the functional roles of cholesterol on pluripotency, cholesterol inhibitor simvastatin, AY9944, Methyl-β-cyclodextrin (MBCD) were used to inhibit cholesterol biosynthesis (FIG. 4A). […] HMGCR is the rate-limiting enzyme of cholesterol biosynthesis. The side effects of statin are few and no cytotoxic side effects in human has been reported. AY9944 inhibits Δ7-dehydrocholesterol reductase (DHCR7), and decrease levels of cholesterol (Wassila Gaoua, 2000). […]
Experimental Readout: pIC50
Please note pIC50 is a logarithmic value: minus log10 of concentration in mol/L. Answer with that number alone.

Ask: Looking for the measured pIC50 of CCC(C)(C)C(=O)O[C@H]1C[C@@H](C)C=C2C=C[C@H](C)[C@H](CC[C@@H]3C[C@@H](O)CC(=O)O3)[C@H]21 [Simvastatin] , can you help?
Result: 5.26
